Tested on: SK-MEL-28 melanoma
Assay: NCI tumour cell line growth inhibition, 48 h
Property: TGI

Qu. What measured TGI goes with "CC(=O)OCc1ccc2oc(=O)c(C(=O)Oc3ccccc3)cc2c1" ?
Ans. > 100 µM

Qu. What measured TGI goes with COC(=O)C1(C)C=CC(=O)C2(C)C1C(O)C1OC3CC(c4ccoc4)C(C)=C3C1(C)C2CC(=O)O (stereo not given) ?
Ans. > 100 µM

Qu. What measured TGI goes with "COc1ccc(C(=O)/C=C/c2cc(O)c(O)c(F)c2F)c(OC)c1" ?
Ans. > 100 µM

Qu. What measured TGI goes with "C(=C\c1ccco1)/c1cccc(/C=C/c2ccco2)n1" ?
Ans. > 50 µM

Qu. What measured TGI goes with "CC1(C)CCC[C@]2(C)[C@H]3[C@H](C#N)c4cc(O)c(O)cc4O[C@@]3(C)CC[C@@H]12" ?
Ans. > 10 µM
